TARGET_OR_SYSTEM: mouse vascular endothelial growth factor receptor-2 Fc chimera (Flk-1-Fc) (mouse) (UniProt P35918)
Sequence (P35918 20-762, change not shown): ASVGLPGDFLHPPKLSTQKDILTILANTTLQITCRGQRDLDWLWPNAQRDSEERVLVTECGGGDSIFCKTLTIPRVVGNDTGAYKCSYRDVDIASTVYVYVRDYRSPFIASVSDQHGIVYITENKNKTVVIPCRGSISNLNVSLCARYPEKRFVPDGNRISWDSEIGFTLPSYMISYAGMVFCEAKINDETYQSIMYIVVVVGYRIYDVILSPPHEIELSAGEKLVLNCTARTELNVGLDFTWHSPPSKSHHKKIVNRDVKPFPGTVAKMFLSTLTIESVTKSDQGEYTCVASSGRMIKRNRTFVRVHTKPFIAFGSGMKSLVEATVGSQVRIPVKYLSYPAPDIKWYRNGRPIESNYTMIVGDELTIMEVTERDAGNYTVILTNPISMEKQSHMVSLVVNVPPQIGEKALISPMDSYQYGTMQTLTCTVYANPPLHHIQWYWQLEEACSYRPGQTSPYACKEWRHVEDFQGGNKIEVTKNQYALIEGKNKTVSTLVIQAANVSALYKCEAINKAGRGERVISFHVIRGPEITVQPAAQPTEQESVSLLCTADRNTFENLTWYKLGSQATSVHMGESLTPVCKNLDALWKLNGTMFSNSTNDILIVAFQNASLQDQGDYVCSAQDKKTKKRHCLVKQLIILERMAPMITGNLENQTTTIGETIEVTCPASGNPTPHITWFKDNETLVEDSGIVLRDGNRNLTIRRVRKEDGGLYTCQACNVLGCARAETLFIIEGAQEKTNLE
EXPERIMENT_NOTES: radioactive equilibrium binding, 1 nM Flk-1-Fc
REPORTED_PROPERTY: Binding to 1 nM Flk-1, % (%)

BINDER	REPORTED_PROPERTY	UNITS_LABEL	OBSERVED_VALUE
D11 (designed binder) EVVAATPTSLLISWRHPHFPTRYYRITYGETGGNSPVQEFTVPLQPPTATISGLKPGVDYTITGYAVTVERNGHKLFTPISINYRT	Binding to 1 nM Flk-1, %	%	3
E22 (designed binder) EVVAATPTSLLISWRHPHFPTRYYRITYGETGGNSPVQEFTVPLQPPTATISGLKPGVDYTITGYAVTLGRNDRELLTPISINYRT	Binding to 1 nM Flk-1, %	%	3

[a] E10 (designed binder) EVVAATPTSLLISWRHPHFPTRYYRITYGETGGNSPVQEFTVPLQPPTATISGLKPGVDYTITGYAVTEGRNGRELFIPISINYRT
[b] F10 (designed binder) EVVAATPTSLLISWRHPHFPTRYYRITYGETGGNSPVQEFTVPLQPPTATISGLKPGVDYTITGYAVTMAPNGRELLTPISINYRT
[c] A4 (designed binder) EVVAATPTSLLISWRHPHFPTRYYRITYGETGGNSPVQEFTVPLQPPTATISGLKPGVDYTITGYAVTDGYNDRLLFIPISINYRT
Please give the order of these binders when sorted by Binding to 1 nM Flk-1, %, largest value leading. Arrange the labels as the request states and list them.
a, c, b
(a: 3%, c: 2%, b: 1%)

Reference source: patent US20080220049A1
